Provide the reported IC50 of each item.
Molecular target: Tyrosinase (Agaricus bisporus, UniProt O42713)
Sequence (O42713 whole entry): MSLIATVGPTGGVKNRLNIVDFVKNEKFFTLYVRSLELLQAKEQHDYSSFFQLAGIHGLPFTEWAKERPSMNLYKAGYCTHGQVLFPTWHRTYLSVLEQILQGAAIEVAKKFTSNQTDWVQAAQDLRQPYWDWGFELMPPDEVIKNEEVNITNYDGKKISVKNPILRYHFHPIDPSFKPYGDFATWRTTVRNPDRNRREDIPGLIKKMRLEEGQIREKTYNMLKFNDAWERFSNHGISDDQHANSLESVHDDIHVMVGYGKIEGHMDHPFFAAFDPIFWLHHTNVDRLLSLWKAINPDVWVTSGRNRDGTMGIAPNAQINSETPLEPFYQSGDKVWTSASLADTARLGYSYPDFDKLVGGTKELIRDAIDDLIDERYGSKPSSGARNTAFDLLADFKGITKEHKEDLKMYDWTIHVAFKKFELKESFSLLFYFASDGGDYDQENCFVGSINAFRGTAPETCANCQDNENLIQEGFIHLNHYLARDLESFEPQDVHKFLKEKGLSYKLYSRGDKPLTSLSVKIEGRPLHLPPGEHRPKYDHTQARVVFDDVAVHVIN
Assay: Inhibition of mushroom tyrosinase assessed as reduction in dopachrome formation using L-DOPA as substrate by ELISA
Report as a plain number; the unit nM is understood.

[Q] # IC50 lookup, item `O=Cc1ccc(OCc2cn(Cc3cc(=O)c(O)co3)nn2)cc1`
[A] 1050

[Q] Here is the next compound: `C=CCc1ccc(OCc2cn(Cc3cc(=O)c(O)co3)nn2)c(OC)c1`
[A] 1070

[Q] Proceed to `O=c1cc(OCc2cn(Cc3cc(=O)c(O)co3)nn2)c2ccccc2o1`
[A] 20
